Experiment: in vitro
Conditions: rhesus monkey, liver microsomes
experimentalEndpoint: CLint scaled at 0.5 h, 1 µM (mL/min/kg)
Give your result in mL/min/kg as a bare value.

The measured CLint scaled at 0.5 h, 1 µM associated with N#Cc1ccccc1-c1ccc2c(c1)CCn1c-2cc(OCC2COCCO2)nc1=O (stereo unspecified) reads 193

---

Assay: Clearance in Beagle dog at 0.5 mg/kg, iv administered as 10 mins infusion via catheter by LC-MS/MS analysis
Settings: in vivo
experimentalEndpoint: clearance at […] (mL/min/kg)
Give your result in mL/min/kg as a bare value.

The measured clearance at […] associated with O=c1nc(OC[C@@H]2COCCO2)cc2n1CCc1cc(C#CC3CC3)ccc1-2 reads 20

---

Test: in vivo
Settings: Beagle, dog, po
experimentalEndpoint: Tmax (min)
Give your result in min as a bare value.

The measured Tmax associated with O=c1nc(OC[C@@H]2COCCO2)cc2n1CCc1cc(C#CC3CC3)ccc1-2 reads 30

---

Experiment: in vivo
Details: CD1, mouse, po, 5 mg/kg
experimentalEndpoint: AUC(0-t) at 24 h (ng·h/mL)
Give your result in ng·h/mL as a bare value.

The measured AUC(0-t) at 24 h associated with O=c1nc(OC[C@@H]2COCCO2)cc2n1CCc1cc(C#CC3CC3)ccc1-2 reads 15300

---

Below, each entry is listed alongside its reported fraction unbound at 4 h, 5 µM.
Assay: Plasma protein binding in dog at 5 uM measured after 4 hrs by LC-MS/MS analysis

O=c1nc(OC[C@@H]2COCCO2)cc2n1CCc1cc(C#CC3CC3)ccc1-2 ... 0.065

Below: the item to evaluate.
The measured fraction unbound at 4 h, 5 µM associated with O=c1nc(OC[C@H]2COCCO2)cc2n1CCc1cc(C#CC3CC3)ccc1-2 reads 0.033

---

Test: in vitro
Details: mouse, liver microsomes
experimentalEndpoint: CLint scaled at 0.5 h, 1 µM (L/h/kg)
Give your result in L/h/kg as a bare value.

O=c1nc(OC[C@@H]2COCCO2)cc2n1CCc1cc(C#CC3CC3)ccc1-2 ... 8

The measured CLint scaled at 0.5 h, 1 µM associated with COc1ccc2c(c1)CCn1c-2cc(OCC2COc3ccccc3O2)nc1=O (configuration not stated) reads 31.9

The measured CLint scaled at 0.5 h, 1 µM associated with COc1cc2c(cc1OC)-c1cc(OCc3ccccc3F)nc(=O)n1CC2 reads 40.2

The measured CLint scaled at 0.5 h, 1 µM associated with COc1ccc2c(c1)CCn1c-2cc(OC[C@H]2COc3ncccc3O2)nc1=O reads 21.6

The measured CLint scaled at 0.5 h, 1 µM associated with COc1ccc2c(c1)CCn1c-2cc(OCC2CCCCO2)nc1=O (configuration not stated) reads 27.8

The measured CLint scaled at 0.5 h, 1 µM associated with COc1cc2c(cc1OC)-c1cc(OCC3CCCO3)nc(=O)n1CC2 (configuration not stated) reads 10.5

The measured CLint scaled at 0.5 h, 1 µM associated with N#Cc1ccccc1-c1ccc2c(c1)CCn1c-2cc(OCC2COCCO2)nc1=O (configuration not stated) reads 9.05

The measured CLint scaled at 0.5 h, 1 µM associated with O=c1nc(OCC2COCCO2)cc2n1CCc1cc(CCc3ccccn3)ccc1-2 (configuration not stated) reads 31

The measured CLint scaled at 0.5 h, 1 µM associated with COc1ccc2c(c1)CCn1c-2cc(OCC2CCCO2)nc1=O (configuration not stated) reads 129

The measured CLint scaled at 0.5 h, 1 µM associated with COc1ccc2c(c1)CCn1c-2cc(OCC2COCCO2)nc1=O (configuration not stated) reads 10.4

The measured CLint scaled at 0.5 h, 1 µM associated with COc1ccc2c(c1)CCn1c-2cc(OCc2ncccc2F)nc1=O reads 29.2

The measured CLint scaled at 0.5 h, 1 µM associated with COc1ccc2c(c1)-c1cc(OCc3ccccc3F)nc(=O)n1CC2 reads 118

Hey, just so you know, these numbers are from ChEMBL document CHEMBL4673243.
